Answer each item with its documented Population Healthy Nuclei (%).
Test system: HEK-293T
ASSAY_OVERVIEW: Multiplex assay against HEK293T
Format: toxicity, cell-based
RUN_CONDITIONS: human, 24 h, 1 µM, compound concentration 1 uM, replicate 2
Answers are plain numbers, in %.

[
  {
    "COMPOUND": "COc1ncc(-c2ccc3nccc(-c4ccnnc4)c3c2)cc1NS(=O)(=O)c1ccc(F)cc1F",
    "Population Healthy Nuclei (%)": 14
  }
]

Could I get Population Healthy Nuclei (%) for every one of these entries?
1. C[C@@H](NCCCc1cccc(C(F)(F)F)c1)c1cccc2ccccc12.Cl [CINACALCET HYDROCHLORIDE]
2. CN1CCN(CCOc2cc(OC3CCOCC3)c3c(Nc4c(Cl)ccc5c4OCO5)ncnc3c2)CC1
3. C=CC(=O)Nc1ccc2ncnc(Nc3ccc(OCc4cccc(F)c4)c(Cl)c3)c2c1.Cc1ccc(S(=O)(=O)O)cc1
4. COc1cccc([C@@H](C)NCCCc2ccccc2Cl)c1.Cl [TECALCET HYDROCHLORIDE]
5. CN1CCN(c2ccc(OC(F)(F)F)c(Nc3ncc4c(n3)-c3c(c(C(N)=O)nn3CCO)CC4)c2)CC1
6. CN(C)CC#Cc1ccc(OCCCc2sc(N3CCc4cccc(C(=O)Nc5nc6ccccc6s5)c4C3)nc2C(=O)O)c(F)c1
7. Cc1csc2c(N[C@@H](C)CN3CCN(S(=O)(=O)c4ccc(Cl)c(Cl)c4)CC3)ncnc12

Reply:
48
39
63
50
26
56
28
